- system_tested: thrombin
- assay_comment: enzyme inhibition
pKi: −log10 of the molar value. Positions of bridges follow the written chain, without caps; N, C: chain ends. No end group written: not given here.
endpoint: pKi

INPUT: Given the entry GCTRQYPC (linker 2-8 via 1,3‑dibromoacetone) [peptide 035] , report its measured pKi.
OUTPUT: < 4.00
